Subject of test: T1, full-length beta-Catenin (Uniprot ID P35222) (Homo sapiens (Human), UniProt P35222 1-781)
T1 construct: Used full-length in the FP and AlphaScreen assays; also called B-Catenin; bCat
T1 sequence: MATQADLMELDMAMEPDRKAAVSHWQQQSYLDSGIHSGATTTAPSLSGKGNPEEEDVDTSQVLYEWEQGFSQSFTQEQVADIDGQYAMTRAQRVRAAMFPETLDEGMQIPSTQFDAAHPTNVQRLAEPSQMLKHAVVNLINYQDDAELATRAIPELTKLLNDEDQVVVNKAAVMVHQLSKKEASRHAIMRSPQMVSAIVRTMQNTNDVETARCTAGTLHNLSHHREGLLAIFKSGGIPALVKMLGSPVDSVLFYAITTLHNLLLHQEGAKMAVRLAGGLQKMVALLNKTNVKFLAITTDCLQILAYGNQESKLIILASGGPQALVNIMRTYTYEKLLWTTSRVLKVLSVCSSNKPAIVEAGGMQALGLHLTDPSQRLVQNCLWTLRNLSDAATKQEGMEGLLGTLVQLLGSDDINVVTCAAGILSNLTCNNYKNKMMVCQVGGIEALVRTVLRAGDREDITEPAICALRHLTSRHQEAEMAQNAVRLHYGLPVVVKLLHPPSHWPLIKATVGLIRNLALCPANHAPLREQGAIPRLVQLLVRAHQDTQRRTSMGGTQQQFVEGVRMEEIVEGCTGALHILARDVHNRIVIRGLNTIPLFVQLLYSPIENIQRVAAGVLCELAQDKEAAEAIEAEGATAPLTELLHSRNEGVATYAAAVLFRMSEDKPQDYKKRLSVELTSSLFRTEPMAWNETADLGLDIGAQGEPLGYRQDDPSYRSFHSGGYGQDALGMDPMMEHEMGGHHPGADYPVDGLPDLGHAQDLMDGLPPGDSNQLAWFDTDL
Assay name: fluorescence polarization competition; full-length beta-catenin + 5FAM-TCF4(10-53) probe as competitor; peptide titrated
Starred links: 1 amine or outer side, 2 acyl side, 3 side chain; linkers in the order of their positions; H or OH if unused. Positions of bridges follow the written chain, without caps; N, C: chain ends. Non-standard residues stand in square brackets, D forms with d. Primed or numbered codes have the meaning given here. B5(4) = 2,2-bis(4-pentenyl)glycine = 2-amino-2-(pent-4-en-1-yl)hept-6-enoic acid (stitching residue), C=CCCCC(CCCC=C)(N[*:1])C(=O)[*:2]; B5(5) = 2,2-bis(4-pentenyl)glycine, 2-amino-2-(pent-4-en-1-yl)hept-6-enoic acid (stitching residue), C=CCCCC(CCCC=C)(N[*:1])C(=O)[*:2]; Phe(3-Me) = Cc1cccc(C[C@H](N)C(=O)O)c1; αAllylPro = C=CC[C@@]1(C(=O)O)CCCN1; S8 = C=CCCCCCC[C@](C)(N)C(=O)O
Readout type: pEC50
Keep in mind that pEC50 stands for -log10 of concentration in molar terms.

Here is how some binders turned out for pEC50.
Ac-[αAllylPro]DA[B5(4)]DEAA[Phe(3-Me)]V[S8]FWQ-NH2 (staple 1-4, 4-11, Stapled peptide composition) [I-207] = 5.76
XDAXDEAAFAXFWA (not fully specified; As printed: Ac-PL3-Asp-Ala-B5-Asp-Glu-Ala-Ala-Phe-Ala-S8-Phe-Trp-Ala-NH2. N-terminal Ac; C-terminal amide; PL3 (1), B5 (4), S8 (11) stapled by olefin metathesis (PL3-B5 and B5-S8), Stapled peptide composition; this is the earlier-eluting isomer composition) [I-186] = 5.30

Now consider a different binder.
Noted for Ac-[αAllylPro]DI[B5(5)]DEAAFV[S8]FWH-NH2 (staple 1-4, 4-11, Stapled peptide composition) [I-177] : its pEC50 reads 5.70
